measurement target: HDAC1 enzyme (recombinant GST-HDAC1) (Homo sapiens (Human))
test details: In vitro HDAC assay (BIOMOL fluorescent-based), HDAC1 enzyme
Assay type: biochemical
pIC50: −log10 of the molar value.
measured parameter: pIC50

[1] Cn1c(CNC(=O)c2ccncc2)nc2cc(/C=C/C(=O)NO)ccc21
[2] Cn1c(CCc2ccccc2)nc2ccc(/C=C/C(=O)NO)cc21
[3] O=C(/C=C/c1ccc2nc(CCc3ccccc3)n(Cc3ccccc3)c2c1)NO
In ascending order of recorded pIC50, list the compounds from the set above. Please express your ranking as an ordered list of the labels.
3, 2, 1
(3: 5.94, 2: 6.42, 1: 6.86)

----------
measurement target: HDAC8 enzyme (recombinant GST-HDAC8) (Homo sapiens (Human), UniProt Q9BY41)
Sequence (Q9BY41 whole entry): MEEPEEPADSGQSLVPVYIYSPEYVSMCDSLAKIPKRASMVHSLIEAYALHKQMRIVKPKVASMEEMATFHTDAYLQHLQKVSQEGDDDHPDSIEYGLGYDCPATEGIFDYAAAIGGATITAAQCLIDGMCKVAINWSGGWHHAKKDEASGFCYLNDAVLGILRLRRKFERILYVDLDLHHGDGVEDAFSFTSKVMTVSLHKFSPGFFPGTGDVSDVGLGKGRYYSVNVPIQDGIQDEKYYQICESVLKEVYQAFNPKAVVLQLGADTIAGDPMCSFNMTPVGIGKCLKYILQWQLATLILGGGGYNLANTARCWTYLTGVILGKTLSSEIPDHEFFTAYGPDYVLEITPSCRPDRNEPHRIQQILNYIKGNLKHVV
test details: In vitro HDAC assay (BIOMOL fluorescent-based), HDAC8 enzyme
Format: biochemical
pIC50: −log10 of the molar value.
measured parameter: pIC50

[A] O=C(/C=C/c1ccc2c(c1)nc(CCc1ccccc1)n2CCN1CCOCC1)NO
[B] O=C(O)CCn1c(CCc2ccccc2)nc2cc(/C=C/C(=O)NO)ccc21
Pick the one with the larger pIC50: A vs B Which one? Tell me its label.
A
(A: 6.46, B: 5.72)

----------
Below are molecules with their pIC50 as measured on UniProt:O15379.
Sequence (O15379 whole entry): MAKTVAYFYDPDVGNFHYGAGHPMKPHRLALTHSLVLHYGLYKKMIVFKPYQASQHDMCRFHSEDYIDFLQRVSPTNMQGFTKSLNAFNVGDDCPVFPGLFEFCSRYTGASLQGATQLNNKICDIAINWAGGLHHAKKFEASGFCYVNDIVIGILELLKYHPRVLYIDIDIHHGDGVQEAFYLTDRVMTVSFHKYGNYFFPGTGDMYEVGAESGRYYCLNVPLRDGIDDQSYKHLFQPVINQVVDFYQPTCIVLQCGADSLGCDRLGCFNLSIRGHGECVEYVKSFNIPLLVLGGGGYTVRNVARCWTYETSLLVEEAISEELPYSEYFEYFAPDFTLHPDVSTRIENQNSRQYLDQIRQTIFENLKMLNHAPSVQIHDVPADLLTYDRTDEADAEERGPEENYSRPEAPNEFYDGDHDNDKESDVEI
pIC50: −log10 of the molar value.
measured parameter: pIC50

[A] COc1cc(Cn2c(CCc3ccccc3)nc3cc(/C=C/C(=O)NO)ccc32)cc(OC)c1OC
[B] CN(C)CC(C)(C)Cn1c(CCc2ccccc2)nc2cc(/C=C/C(=O)NO)ccc21
Pick the one with the larger pIC50: A vs B Which one? Tell me its label.
B

----------
measurement target: HDAC1 enzyme (recombinant GST-HDAC1) (Homo sapiens (Human), UniProt Q13547)
Sequence (Q13547 whole entry): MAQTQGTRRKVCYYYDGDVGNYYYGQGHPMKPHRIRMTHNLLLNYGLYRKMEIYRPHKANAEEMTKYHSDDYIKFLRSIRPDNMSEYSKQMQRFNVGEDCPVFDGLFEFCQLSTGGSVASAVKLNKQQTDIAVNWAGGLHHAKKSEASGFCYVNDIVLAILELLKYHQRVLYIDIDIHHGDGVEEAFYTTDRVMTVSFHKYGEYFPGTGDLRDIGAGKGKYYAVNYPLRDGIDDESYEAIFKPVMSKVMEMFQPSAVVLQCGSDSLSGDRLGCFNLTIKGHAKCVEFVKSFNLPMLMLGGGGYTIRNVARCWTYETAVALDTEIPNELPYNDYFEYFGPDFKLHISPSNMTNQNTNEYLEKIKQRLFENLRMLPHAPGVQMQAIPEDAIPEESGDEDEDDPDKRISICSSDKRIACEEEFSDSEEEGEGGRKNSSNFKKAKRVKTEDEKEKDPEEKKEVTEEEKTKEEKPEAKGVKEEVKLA
test details: In vitro HDAC assay (BIOMOL fluorescent-based), HDAC1 enzyme
Format: biochemical
pIC50: −log10 of the molar value.
measured parameter: pIC50

> print(dat)
                                   molecule  measured.parameter  reading
1  O=C(/C=C/c1ccc2c(c1)nc(CCc1ccccc1)n2CCN1CCOCC1)NO               pIC50     6.57

[a] CC(C)(C)Cn1c(CCc2ccccc2)nc2cc(/C=C/C(=O)NO)ccc21
[b] Cc1nc2cc(/C=C/C(=O)NO)ccc2n1C
// compare measured pIC50 between a and b ; output the lower one Which one? Tell me its label.
b
(b: 5.73, a: 6.54)
